Target: Hsp90 chaperone machinery present in rabbit reticulocyte lysate
Test: Hsp90-dependent refolding of thermally denatured luciferase in rabbit reticulocyte lysate (high-throughput screen and titration)
Assay type: biochemical
Conditions: read-out: IC50 luciferase refolding
readout: pIC50
Convention used: pIC50 is expressed as -log10 of the molar concentration.

Kindly note: Hsp90 chaperone machinery present in rabbit reticulocyte lysate, CC(=O)c1c(O)c(C)c(O)c(Cc2c(O)c3c(c(C(=O)/C=C/c4ccccc4)c2O)OC(C)(C)C=C3)c1O , pIC50 value reported: 4.20

====

Molecular target: Hsp90 chaperone machinery present in rabbit reticulocyte lysate
Assay: Hsp90-dependent refolding of thermally denatured luciferase in rabbit reticulocyte lysate (high-throughput screen and titration)
Type: biochemical
readout: IC50

These recorded examples may help you get a feel for the data.
CC(=O)c1c(O)c(C)c(O)c(Cc2c(O)c3c(c(C(=O)/C=C/c4ccccc4)c2O)OC(C)(C)C=C3)c1O    ~60 µM
COC(=O)[C@]1(C)CC[C@]2(C)CC[C@]3(C)C4=CC=C5C(=CC(=O)C(O)=C5C)[C@]4(C)CC[C@@]3(C)[C@@H]2C1    ~2 µM
C=C1C(=O)O[C@@H]2C[C@@H](C)[C@@H]3C=CC(=O)[C@@]3(C)[C@@H](O)[C@H]12    ~80 µM
COc1c2c3c4c(c(OC)c(=O)c5c(O)cc(OC)c(c6c(OC)cc(O)c(c1=O)c63)c54)[C@@H](C(C)=O)[C@@](C)(O)C2    5 to 10 µM

Per the record, C=C1CCC(O)CC1=CC=C1CCCC2(C)C1CCC2C(C)CCCC(C)C (centres unmarked) has IC50 of ~60 µM

====

Test system: Hsp90-dependent client proteins Cdk6, pAkt, Her2; Hsp90 and Hsp70 in MCF7 cells
Test: Inhibitor-dependent depletion of Hsp90-dependent clients from MCF7 cells (Western blot)
Type: cell-based, human
Settings: 24 h, varying concentrations
readout: Expression of Hsp70

C=C(C)[C@@H](CC=C(C)C)C[C@@]12C[C@@H](CC=C(C)C)C(C)(C)[C@@](CC=C(C)C)(C(=O)C(C(=O)c3ccc(O)c(O)c3)=C1O)C2=O    no effect
COc1cc(/C=C/C(=O)N2CCC=CC2=O)cc(OC)c1OC    no effect
